Tested on: CAKI-1 renal
Measurement Notes: NCI-60 one-dose screen, 48 h
Condition Info: 10 µM unless noted
This is part of a sample that, as a whole, favours compounds with a hit. Of some 83,000 tested, about 20% had one in any assay. The source made the active and inactive calls. How the source made its calls: active means growth percent below 10; inactive means the rest.
Classes used: class 1 (active), class 0 (inactive)

Compound: COc1cccc(C2C(C#N)=C(N)Oc3cc4c(cc32)OCO4)c1 (stereo unspecified)
Label: class 0

Compound: O=C1OCC2=C1C(c1ccccc1)c1cc3c(cc1N2CCO)CCC3 (stereo unspecified)
Label: class 0

Compound: Cc1ccsc1C(=O)CC(=O)C(F)(F)C(F)(F)C(F)(F)F
Label: class 0

Compound: C=C(c1ccc(C(=O)NCCCn2ccnc2)cc1)c1cc2c(cc1C)C(C)(C)CCC2(C)C
Label: class 1

Compound: Cc1cc2nc(CN)[nH]c2cc1C
Label: class 0

Compound: CC1=CC(=O)OC1C/C=C(\C)CCC1[C@@]2(C)CCC[C@@](C)(C(=O)O)C2CC[C@@]1(C)O (stereo partly specified)
Label: class 0

Compound: COc1ccc(C2NC(=O)c3cc4c(cc3N2)OCO4)cc1 (stereo unspecified)
Label: class 0

Compound: O=C1c2cccc3cccc(c23)C(=O)N1CCCCCCCCCCN1C(=O)c2cccc3cccc(c23)C1=O
Label: class 0

Compound: CCOC(=O)C(CCCCC(NC(C)=O)(C(=O)OCC)C(=O)OCC)(NC(C)=O)C(=O)OCC
Label: class 0

Compound: CCCCCCCC/C=C/CCCCCCCC1=NC(C)(C)CN1C(C)C
Label: class 0

Compound: O=C(N/N=C/c1ccc([N+](=O)[O-])o1)c1ccc(O)cc1
Label: class 0

Compound: COc1ccc(-c2cc(-c3ccc(OC)cc3)c3sc(=O)[nH]c3n2)cc1
Label: class 0

Compound: CC(C)(C)[Si](C)(C)OC1[C@@H](O[Si](C)(C)C(C)(C)C)[C@@H](CNC(=O)NC(=O)NC(=O)CI)O[C@H]1n1cnc2c(NC(=O)Nc3ccccc3)ncnc21 (stereo partly specified)
Label: class 0

Compound: CCN(CC)CCCC(C)Nc1ccnc2ccc(Oc3ccccc3)cc12 (stereo unspecified)
Label: class 0

Compound: C=CCCCCOc1cccc(/C=C2\N=C3SCCCN3C2=O)c1
Label: class 0

Compound: CCOC(=O)C1=C(C(=O)OCC)N(c2cc(OC)c(OC)c(OC)c2)C(N)=C(C#N)C1c1cc(=O)[nH]c2ccccc12 (stereo unspecified)
Label: class 0

Compound: COc1cc(/C=N/NC(=O)Cn2c(-c3ccc(C)o3)nc3ccccc32)ccc1OCc1ccccc1
Label: class 0

Compound: O=C(Nc1cccc(-n2ccc3c(NC(=O)c4ccccc4)nccc32)c1)c1ccc(N2CCOCC2)c(C(F)(F)F)c1
Label: class 0

Compound: CC(=O)Nc1c(Br)cc2c(c1Br)Cc1cc(Br)ccc1-2
Label: class 0

Compound: NC(N)=NC1CCCCC1
Label: class 0

Compound: COc1ccc(-c2nn(C(=O)NCCN(C)C)cc2-c2ccncc2)cc1Cl
Label: class 0

Compound: Cc1c(C(=O)Nc2ccccc2F)sc2c(=O)[nH]cnc12
Label: class 0

Compound: Oc1c(C(Nc2cccc3ccccc23)c2ccccc2)ccc2cccnc12 (stereo unspecified)
Label: class 0

Compound: COc1ccc(C(=O)O)cc1.[Ag]
Label: class 0

Compound: COc1cc(/C=C/c2cc(/C=C/c3ccc(O)c(OC)c3)n(C(=O)c3ccccc3Br)n2)ccc1O
Label: class 1

Compound: Clc1nnc2c3ccccc3ccn12
Label: class 0

Compound: CC(C)(C)OC(=O)N1CCCN(CCNc2nccc(-c3c(-c4cccc(O)c4)nc4sccn34)n2)S1(=O)=O
Label: class 0

Compound: CCN(CC)CCNC(=O)n1cc(-c2ccncc2)c(-c2ccc(Cl)c(OC)c2)n1
Label: class 0

Compound: O=C1OCC2=C1C(c1ccccc1)c1cc3c(cc1N2CCO)OCO3 (stereo unspecified)
Label: class 0

Compound: COc1cc(C2CC(c3ccc(C)cc3)=NN2C=O)ccc1Oc1ccnc2cc(Cl)ccc12 (stereo unspecified)
Label: class 0

Compound: CN(C)CCCn1c(=O)c2cc([N+](=O)[O-])ccc2c2cnc3[nH]ccc3c21
Label: class 0

Compound: Clc1ccc(-c2cnc3nonc3n2)s1
Label: class 0

Compound: Fc1ccc(-c2cnc3nonc3n2)c(F)c1
Label: class 0

Compound: ClC1(Cl)C2CCCCCCC21 (stereo unspecified)
Label: class 0

Compound: CN1C(=O)C(C2=NNC(c3ccccc3C(=O)O)C2)C(=O)N(C)C1=O (stereo unspecified)
Label: class 0

Compound: Cn1cnc([N+](=O)[O-])c1S(=O)(=O)Oc1ccccc1
Label: class 0

Compound: c1ccc(-c2nnn(-c3ccccc3)n2)cc1
Label: class 0

Compound: O=C(Nc1cccc(C2=NCCN2)c1)c1ccc(N=Nc2ccc(C(=O)Nc3cccc(C4=NCCN4)c3)cc2)cc1
Label: class 0

Compound: O=C(O)c1ccccc1Oc1cc(-c2ccco2)nc(OCCN2CCOCC2)n1
Label: class 0

Compound: O=C(/C=C/c1ccc(F)cc1)N1CCN(C(=O)/C=C/c2ccc(C(F)(F)F)cc2)CC1
Label: class 0

Compound: C=C1C(=O)O[C@H]2[C@H]1CC/C(COC(=O)NCc1ccc(Cn3c(=O)sn(CCCl)c3=O)cc1)=C\CC[C@@]1(C)O[C@@H]21
Label: class 0

* * *

System: HOP-62 NSCLC
Measurement Notes: NCI-60 one-dose screen, 48 h
Condition Info: 10 µM unless noted
Compounds without any hit were thinned out: in the full panel of roughly 83,000, 20% have a hit. The source made the active and inactive calls. Rule for the calls: active = growth percent below 10; inactive = the rest.
Classes used: active, inactive

Compound: COc1cccc(N2CCN(c3ncnc4cc[nH]c34)CC2)c1
Label: inactive
--
Compound: COc1ccccc1/C=C/C(=O)CCC(=O)O
Label: inactive
--
Compound: CCN1C(=O)N(CC)C2C1NC(=O)N2/N=C/C=C/c1ccccc1 (centres undefined)
Label: inactive
--
Compound: O=C(CSc1nc2c(n1Nc1ccccc1)-c1ccccc1SC2)Nc1nccs1
Label: inactive
--
Compound: CC(=O)Nc1c(Br)cc2c(c1Br)Cc1cc(Br)ccc1-2
Label: inactive
--
Compound: COc1cccc(NC(=O)OC(C)C)c1
Label: inactive
--
Compound: O=C(N/N=C/c1ccc([N+](=O)[O-])cc1)c1ccccc1Nc1ccnc(C(F)(F)F)c1
Label: inactive
--
Compound: C=C1C(=O)O[C@H]2[C@H]1CC/C(COC(=O)NCc1ccc(Cn3c(=O)sn(CCCl)c3=O)cc1)=C\CC[C@@]1(C)O[C@@H]21
Label: inactive
--
Compound: CC(C)[C@@]12C[C@@H](OC(=O)C3CO3)[C@@](C)(O1)[C@@H]1CC[C@@H](C)[C@H]1[C@@H]2OC(=O)/C=C/c1ccccc1 (some centres undefined)
Label: inactive
--
Compound: CNC(=O)c1c(NC(=O)c2cccc(C(F)(F)F)c2)sc2c1CCC(=O)C2
Label: inactive
--
Compound: COC(=O)CSc1ccc(Cl)cc1
Label: inactive
--
Compound: CC(NC(=O)c1ccccc1)C(=O)Nc1ccccc1 (centres undefined)
Label: inactive
--
Compound: CCN(CC)CCCC(C)Nc1ccnc2ccc(Oc3ccccc3)cc12 (centres undefined)
Label: inactive
--
Compound: COc1ccc(-c2cc(-c3cc4ccccc4oc3=O)n(-c3ccccc3)n2)cc1
Label: inactive
--
Compound: N=C(N)c1ccc(-c2ccc(-c3ccco3)o2)cc1F
Label: inactive
--
Compound: CSC1=N/C(=C\c2cccc(OCc3ccc(Cl)cc3)c2)C(=O)N1
Label: inactive
--
Compound: COc1cccc(/C=N\Nc2ccc([N+](=O)[O-])cn2)c1O
Label: inactive
--
Compound: CCc1onc(-c2ccc(OC)cc2)c1-c1ccccc1OCCN(CC)CC
Label: inactive
--
Compound: O=C(N/N=C/c1ccccc1O)c1ccncc1
Label: inactive
--
Compound: C=C1C(=O)O[C@H]2[C@H]1CC/C(COC(=O)NCc1cn(C)c3ccccc13)=C\CC[C@@]1(C)O[C@@H]21
Label: inactive
--
Compound: CCSc1cnnc2ccccc12
Label: inactive
--
Compound: Cc1ccccc1NC(=O)c1sc2nc3c(cc2c1N)C(=O)CCC3
Label: inactive
--
Compound: CCN(CC)c1ccc(/C=N/N=C(N)N)cc1
Label: inactive
--
Compound: COc1cc(NC(=O)CSc2nc3ccc(Cl)cc3c(=O)n2Cc2ccccc2)cc(OC)c1OC
Label: inactive
--
Compound: CCCCCCCC/C=C\CCCCCCCC(=O)OCCCCCC
Label: inactive
--
Compound: CSc1ccc(/C=C2\C=C(CC(=O)NCc3ccc(C(=O)c4ccccc4)cc3)c3cc(F)ccc32)cc1
Label: active
--
Compound: COc1cc2c(c(OC)c1O)C(=O)C(OC)C(c1ccc(O)c(O)c1)O2 (centres undefined)
Label: inactive
--
Compound: CN1C2CCC1/C(=C\c1ccc(Cl)cc1)C(=O)/C2=C/c1ccc(Cl)cc1
Label: inactive
--
Compound: Brc1ccsc1Br
Label: inactive
--
Compound: COC(=O)c1ccc2c(c1)nc(-c1ccc(Cl)cc1)n2-c1cc(C(C)(C)C)[nH]n1
Label: inactive
--
Compound: CCCCCCCC/C=C/CCCCCCCC1=NC(C)(C)CN1c1ccccc1
Label: inactive
--
Compound: CCNC(=O)c1ccc2c(c1)nc(-c1ccc(Cl)cc1)n2-c1cc(C(C)(C)C)[nH]n1
Label: inactive
--
Compound: O=C(O)CSc1ccc(NCc2oc(CO)cc(=O)c2O)cc1
Label: inactive
--
Compound: COc1ccc(-n2c(COc3ccc(F)cc3)n[nH]c2=S)cc1
Label: inactive
--
Compound: O=C1NN(C(=O)c2ccccc2)C(c2ccc(Cl)c(Cl)c2)=C/C1=C\c1ccccc1[N+](=O)[O-]
Label: inactive
--
Compound: CCN(CC)c1cc(C)c(Cc2c(OC)ccc3ccccc23)cc1C
Label: inactive
--
Compound: CCCCCCCCCCCC1=NC(C)(C)CN1C(C)C
Label: inactive
--
Compound: O=C1Nc2ccc(Br)cc2/C1=N/c1nc(-c2ccccc2)cs1
Label: inactive
--
Compound: O=c1c2cc(Cl)ccc2oc2ccc(OCCCCCN3CCCCCC3)cc12
Label: inactive
--
Compound: O=C(/C=C/c1cn(-c2ccccc2)nc1-c1ccccc1)OCc1cn(-c2cccc([N+](=O)[O-])c2)nn1
Label: inactive
--
Compound: COc1cc2c(cc1OC)-c1cc(OC)c(OC)cc1C(CN(C)C)C2 (centres undefined)
Label: active
--
Compound: NC(N)=N/N=C/c1ccc(Cl)cc1
Label: inactive
--
Compound: Cc1ccc(C(CN(C)C)C(=O)c2ccccc2)cc1 (centres undefined)
Label: inactive
--
Compound: O/N=C1\c2ccccc2-c2ccc(Br)cc21
Label: inactive
